I'd appreciate it if you could supply pIC50 values for the items below.
- Experimental target: UniProt Q09472
- Sequence (Q09472 whole entry): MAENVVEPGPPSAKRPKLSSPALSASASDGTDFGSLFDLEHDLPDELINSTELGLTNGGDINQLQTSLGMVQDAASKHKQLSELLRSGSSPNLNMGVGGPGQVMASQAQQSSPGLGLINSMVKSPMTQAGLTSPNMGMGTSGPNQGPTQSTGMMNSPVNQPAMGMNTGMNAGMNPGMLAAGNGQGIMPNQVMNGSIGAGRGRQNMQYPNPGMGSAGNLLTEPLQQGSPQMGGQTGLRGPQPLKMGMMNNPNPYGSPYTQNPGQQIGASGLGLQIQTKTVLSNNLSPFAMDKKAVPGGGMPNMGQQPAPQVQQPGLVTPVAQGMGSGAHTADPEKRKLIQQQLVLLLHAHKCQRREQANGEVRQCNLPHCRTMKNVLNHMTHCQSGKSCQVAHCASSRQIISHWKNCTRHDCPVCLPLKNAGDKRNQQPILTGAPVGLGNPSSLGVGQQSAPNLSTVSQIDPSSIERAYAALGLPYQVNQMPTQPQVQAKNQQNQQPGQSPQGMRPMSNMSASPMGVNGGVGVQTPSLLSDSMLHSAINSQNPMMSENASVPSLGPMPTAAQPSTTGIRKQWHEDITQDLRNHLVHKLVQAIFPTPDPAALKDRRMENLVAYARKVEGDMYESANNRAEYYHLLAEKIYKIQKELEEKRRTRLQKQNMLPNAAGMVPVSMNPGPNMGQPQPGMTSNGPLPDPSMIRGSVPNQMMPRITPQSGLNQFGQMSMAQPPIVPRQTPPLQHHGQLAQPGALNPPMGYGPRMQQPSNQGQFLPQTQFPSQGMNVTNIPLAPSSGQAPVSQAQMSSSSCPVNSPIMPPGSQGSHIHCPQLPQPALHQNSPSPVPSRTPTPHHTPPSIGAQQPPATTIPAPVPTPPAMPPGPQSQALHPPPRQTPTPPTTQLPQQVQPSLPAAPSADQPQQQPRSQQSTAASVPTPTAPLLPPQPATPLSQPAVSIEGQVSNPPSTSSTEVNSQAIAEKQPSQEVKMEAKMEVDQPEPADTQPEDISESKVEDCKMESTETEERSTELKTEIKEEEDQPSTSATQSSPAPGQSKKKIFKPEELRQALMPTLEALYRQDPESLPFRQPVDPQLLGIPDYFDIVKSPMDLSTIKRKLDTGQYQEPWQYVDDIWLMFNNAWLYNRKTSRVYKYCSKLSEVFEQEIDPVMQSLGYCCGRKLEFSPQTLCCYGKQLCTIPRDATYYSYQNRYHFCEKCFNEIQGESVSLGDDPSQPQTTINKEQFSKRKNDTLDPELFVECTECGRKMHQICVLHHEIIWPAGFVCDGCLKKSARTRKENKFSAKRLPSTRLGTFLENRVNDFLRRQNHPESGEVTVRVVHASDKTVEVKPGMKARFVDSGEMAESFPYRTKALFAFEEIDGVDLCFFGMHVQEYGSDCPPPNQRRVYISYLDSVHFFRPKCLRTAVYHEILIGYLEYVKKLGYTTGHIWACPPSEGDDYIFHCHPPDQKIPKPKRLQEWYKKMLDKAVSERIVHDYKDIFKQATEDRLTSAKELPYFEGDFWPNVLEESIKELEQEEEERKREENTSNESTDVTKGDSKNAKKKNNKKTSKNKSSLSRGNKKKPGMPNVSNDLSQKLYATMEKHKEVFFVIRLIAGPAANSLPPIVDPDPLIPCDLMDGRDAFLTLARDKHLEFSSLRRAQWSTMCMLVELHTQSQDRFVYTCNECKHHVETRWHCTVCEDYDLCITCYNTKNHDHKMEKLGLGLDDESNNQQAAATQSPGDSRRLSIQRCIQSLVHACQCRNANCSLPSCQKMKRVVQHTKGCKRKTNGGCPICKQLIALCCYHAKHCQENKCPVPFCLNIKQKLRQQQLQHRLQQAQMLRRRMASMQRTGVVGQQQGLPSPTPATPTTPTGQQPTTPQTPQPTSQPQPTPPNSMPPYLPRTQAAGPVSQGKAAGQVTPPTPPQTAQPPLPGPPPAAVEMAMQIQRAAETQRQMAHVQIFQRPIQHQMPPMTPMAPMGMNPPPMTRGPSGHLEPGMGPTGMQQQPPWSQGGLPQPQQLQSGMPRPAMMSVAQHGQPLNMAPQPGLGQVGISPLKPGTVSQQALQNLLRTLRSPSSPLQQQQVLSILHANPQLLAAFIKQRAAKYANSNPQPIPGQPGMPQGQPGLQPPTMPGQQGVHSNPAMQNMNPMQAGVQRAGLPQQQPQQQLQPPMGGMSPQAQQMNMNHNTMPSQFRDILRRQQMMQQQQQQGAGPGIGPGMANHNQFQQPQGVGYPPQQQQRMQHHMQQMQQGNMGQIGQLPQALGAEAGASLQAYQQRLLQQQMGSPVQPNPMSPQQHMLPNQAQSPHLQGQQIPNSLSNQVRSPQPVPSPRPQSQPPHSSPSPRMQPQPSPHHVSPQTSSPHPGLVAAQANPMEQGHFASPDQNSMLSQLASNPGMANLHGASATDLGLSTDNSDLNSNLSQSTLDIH
- Experiment description: Inhibition of recombinant p300
Give bare numbers, as −log10 of the molar value.

CC(=O)N[C@@H](CCCCNC(=O)CSCCNC(=O)CCNC(=O)[C@H](O)C(C)(C)COP(=O)(O)OP(=O)(O)OC[C@H]1O[C@@H](n2cnc3c(N)ncnc32)[C@H](O)[C@@H]1OP(=O)(O)O)C(N)=O = 6.01

Continue with the next compound.
input: pIC50 for CC(C)(COP(=O)(O)OP(=O)(O)OC[C@H]1O[C@@H](n2cnc3c(N)ncnc32)[C@H](O)[C@@H]1OP(=O)(O)O)[C@@H](O)C(=O)NCCC(=O)NCCS [COENZYME_A] ?
output: 4.34
